# Tested Target: opioid receptor (Mus musculus, UniProt P42866)
# Construct: Five CF-1 male mice (Charles River, Portage, Mich.); from tissue; host or cells: living CF-1 male mice (in vivo test; endogenous receptor)
# Sequence (P42866 whole entry): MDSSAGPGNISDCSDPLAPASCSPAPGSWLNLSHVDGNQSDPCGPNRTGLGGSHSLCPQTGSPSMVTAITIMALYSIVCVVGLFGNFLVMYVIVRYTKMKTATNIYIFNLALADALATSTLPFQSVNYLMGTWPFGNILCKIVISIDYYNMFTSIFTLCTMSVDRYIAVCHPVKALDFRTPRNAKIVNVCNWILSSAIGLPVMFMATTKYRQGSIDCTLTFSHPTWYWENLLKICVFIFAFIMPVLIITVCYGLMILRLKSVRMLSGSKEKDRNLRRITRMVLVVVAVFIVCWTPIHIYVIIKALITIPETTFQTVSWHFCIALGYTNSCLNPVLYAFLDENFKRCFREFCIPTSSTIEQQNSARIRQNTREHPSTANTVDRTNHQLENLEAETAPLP
# Assay Summary: mouse writhing analgesis test: block of morphine-induced analgesia
# Format: in vivo, CF-1 male mice
# Design: unit not given here
# Measurement Conditions: dose of antagonist that reduced the inhibition of writhing produced by 1.25 mg/kg morphine sulfate to 50%; subcutaneous, 20 min before acetic acid
Structures can show the parent of a compound that is named as a salt.
Quantity Name: AD50

* C[C@H]1CN(CCC(C(=O)N(C)C)c2ccccc2)CC[C@@]1(C)c1cccc(O)c1 (relative stereo) [Example 10, hydrochloride] | 0.54
* C[C@H]1CN(CC(CC2CCCCC2)C(=O)O)CC[C@@]1(C)c1cccc(O)c1 (relative stereo) [Example 5B, monohydrate] | 1.6
* CCNC(=O)CNC(=O)C(Cc1ccccc1)CN1CC[C@@](C)(c2cccc(OC)c2)[C@@H](C)C1 (single isomer, unassigned) | 0.71
* COC(=O)COC(=O)CNC(=O)C(Cc1ccccc1)CN1CC[C@@](C)(c2cccc(O)c2)[C@@H](C)C1 (relative stereo) | 9.5

----------
# key: entry, value: ED50
# Tested Target: peripheral opioid receptors (Mus musculus)
# Construct: Mice maintained (6 mice/cage) on 0.01M saccharin water with 1 g/1 morphine sulfate; from tissue; host or cells: living morphine-maintained mice (in vivo test; endogenous receptor)
# Assay Summary: precipitated diarrhea in morphine-maintained mice (peripheral opioid activity) and comparison with the writhing test
# Format: in vivo
# Measurement Conditions: mouse, 0.5 h, morphine-maintained mice; antagonist subcutaneous or oral; 30 min observation
Where a name gives a salt, the structure may show the parent alone.
Quantity Name: ED50 (mg/kg)

• CC(C)NC(=O)CNC(=O)C(Cc1ccccc1)CN1CC[C@@](C)(c2cccc(O)c2)[C@@H](C)C1 (stereo partly drawn) [Example 48, hydrochloride monohydrate] = 0.1
• CCOC(=O)CNC(=O)C(CCN1CC[C@@](C)(c2cccc(O)c2)[C@@H](C)C1)c1ccccc1 (relative stereo) [Example 11, monohydrochloride] = 0.017
• C[C@H]1CN(CC(Cc2ccccc2)C(=O)NCC(=O)O)CC[C@@]1(C)c1cccc(O)c1 (single isomer, unassigned; (+)) [Example 97E, monohydrate] = 0.07
• CCOC(=O)CNC(=O)C(CC1CCCCC1)CN1CC[C@@](C)(c2cccc(O)c2)[C@@H](C)C1 (relative stereo) [Example 29, monohydrochloride] = 0.17
• CC(C)OC(=O)CNC(=O)C(Cc1ccccc1)CN1CC[C@@](C)(c2cccc(O)c2)[C@@H](C)C1 (stereo partly drawn) [Example 51, monohydrochloride] = 0.15

----------
# Tested Target: mu receptor (Rattus norvegicus)
# Construct: rat whole brain minus cerebellum for mu was homogenized; from tissue; host or cells: brain of male Sprague Dawley rats, whole brain minus cerebellum, homogenate fraction
# Assay Summary: opioid receptor binding assay, [3H] NAL (tritiated naloxone), mu receptor
# Set-up: species or system rat (Male Sprague Dawley), brain minus cerebellum
# Measurement Conditions: 20 min, read-out: % displacement at 10 nM, 10 nM test compound; [3H] naloxone 0.5 nM
Counter-ions that a name gives are not always drawn.
Quantity Name: inhibition at 0.01 µM (%)

- CCOC(=O)CCCNC(=O)C(CCN1CC[C@@](C)(c2cccc(O)c2)[C@@H](C)C1)C1CCCCC1 (relative stereo) [Example 23, monohydrochloride monohydrate]: 100
- C[C@H]1CN(CC(Cc2ccccc2)C(=O)NCC(N)=O)CC[C@@]1(C)c1cccc(O)c1 (stereo partly drawn) [Example 46, monohydrochloride monohydrate]: 99
- CNC(=O)CCCNC(=O)C(CCN1CC[C@@](C)(c2cccc(O)c2)[C@@H](C)C1)C1CCCCC1 (relative stereo) [Example 24, monohydrochloride monohydrate]: 100
- C[C@H]1CN(CC(CC2CCCCC2)C(=O)NCC(N)=O)CC[C@@]1(C)c1cccc(O)c1 (relative stereo) [Example 33, monohydrochloride]: 95
- CCOC(=O)CN(C)C(=O)CNC(=O)C(Cc1ccccc1)CN1CC[C@@](C)(c2cccc(O)c2)[C@@H](C)C1 (relative stereo): 90
- C[C@H]1CN(CCC(C(=O)NCC(N)=O)C2CCCCC2)CC[C@@]1(C)c1cccc(O)c1 (relative stereo) [Example 20, hydrochloride monohydrate]: 98

----------
# key: entry, value: ED50
# Tested Target: peripheral opioid receptors (Mus musculus)
# Construct: Mice maintained (6 mice/cage) on 0.01M saccharin water with 1 g/1 morphine sulfate; from tissue; host or cells: living morphine-maintained mice (in vivo test; endogenous receptor)
# Assay Summary: precipitated diarrhea in morphine-maintained mice (peripheral opioid activity) and comparison with the writhing test
# Assay type: in vivo
# Measurement Conditions: mouse, 0.5 h, morphine-maintained mice; antagonist subcutaneous or oral; 30 min observation
Where a name gives a salt, the structure may show the parent alone.
Quantity Name: ED50 (mg/kg)

• CCOC(=O)C(Cc1ccccc1)CN1CC[C@@](C)(c2cccc(O)c2)[C@@H](C)C1 (relative stereo) [Example 4A, hydrochloride] = 0.012
• CCOC(=O)C(Cc1ccccc1)CN1CC[C@@](C)(c2cccc(OC)c2)[C@@H](C)C1 (single isomer, unassigned) [Example 78B] = 0.055
• C[C@H]1CN(CCC(C(=O)NCCCC(=O)O)C2CCCCC2)CC[C@@]1(C)c1cccc(O)c1 (relative stereo) [Example 28, monohydrate] = 0.01
• CNC(=O)C(Cc1ccccc1)CN1CC[C@@](C)(c2cccc(OC)c2)[C@@H](C)C1 (single isomer, unassigned) = 0.16
• CCOC(=O)C(CCN1CC[C@@](C)(c2cccc(O)c2)[C@@H](C)C1)c1ccccc1 (relative stereo) [Example 8A, hydrochloride] = 0.02
• C[C@H]1CN(CC(CC2CCCCC2)C(=O)NCCC(=O)O)CC[C@@]1(C)c1cccc(O)c1 (stereo partly drawn) [Example 35, hydrochloride] = 0.06

----------
# Tested Target: mu receptor (Rattus norvegicus, UniProt P33535)
# Construct: rat whole brain minus cerebellum for mu was homogenized; from tissue; host or cells: brain of male Sprague Dawley rats, whole brain minus cerebellum, homogenate fraction
# Assay Summary: opioid receptor binding assay, [3H] NAL (tritiated naloxone), mu receptor
# Design: species or system rat (Male Sprague Dawley), brain minus cerebellum
# Measurement Conditions: 20 min, read-out: % displacement at 10 nM
Structures can show the parent of a compound that is named as a salt.
# key: entry, value: inhibition at 0.01 µM
Quantity Name: inhibition at 0.01 µM (%)

* C[C@H]1CN(CC(Cc2ccccc2)C(=O)NCC(=O)O)CC[C@@]1(C)c1cccc(O)c1 (single isomer, unassigned; (+)) [Example 97E, monohydrate] | 80
* CCOC(=O)C(Cc1ccccc1)CN1CC[C@@](C)(c2cccc(O)c2)[C@@H](C)C1 (relative stereo) [Example 4A, hydrochloride] | 92
* CC(C)COC(=O)CNC(=O)C(Cc1ccccc1)CN1CC[C@](C)(c2cccc(O)c2)[C@H](C)C1 (single isomer, unassigned) [Example 98D] | 80

----------
# Tested Target: peripheral opioid receptors (Mus musculus, UniProt P42866)
# Construct: Mice maintained (6 mice/cage) on 0.01M saccharin water with 1 g/1 morphine sulfate; from tissue; host or cells: living morphine-maintained mice (in vivo test; endogenous receptor)
# Sequence (P42866 whole entry): as above
# Assay Summary: precipitated diarrhea in morphine-maintained mice (peripheral opioid activity) and comparison with the writhing test
# Format: in vivo
# Measurement Conditions: mouse, 0.5 h, morphine-maintained mice; antagonist subcutaneous or oral; 30 min observation
Where a name gives a salt, the structure may show the parent alone.
# key: entry, value: ED50
Quantity Name: ED50

- C[C@H]1CN(CC(CC2CCCCC2)C(=O)NCCC(N)=O)CC[C@@]1(C)c1cccc(O)c1 (stereo partly drawn) [Example 38, hydrochloride]: 0.06 mg/kg
- C[C@H]1CN(CC(Cc2ccccc2)C(=O)N(C)CC(=O)O)CC[C@@]1(C)c1cccc(O)c1 (relative stereo) [Example 66, monohydrate]: < 3 mg/kg
- C[C@H]1CN(CCC(C(=O)NCCC(=O)OCc2ccccc2)C2CCCCC2)CC[C@@]1(C)c1cccc(O)c1 (relative stereo) [Example 25, hydrochloride monohydrate]: 0.29 mg/kg
- CCNC(=O)CCNC(=O)C(CC1CCCCC1)CN1CC[C@@](C)(c2cccc(O)c2)[C@@H](C)C1 (stereo partly drawn) [Example 37, monohydrochloride]: 0.09 mg/kg
- C[C@H]1CN(CC(Cc2ccccc2)C(=O)NCC(=O)OCC(=O)N(C)C)CC[C@@]1(C)c1cccc(O)c1 (relative stereo): 0.1 mg/kg
- CNC(=O)CNC(=O)C(Cc1ccccc1)CN1CC[C@@](C)(c2cccc(OC)c2)[C@@H](C)C1 (single isomer, unassigned): 0.055 mg/kg

----------
# Tested Target: peripheral opioid receptors (Mus musculus)
# Construct: Mice maintained (6 mice/cage) on 0.01M saccharin water with 1 g/1 morphine sulfate; from tissue; host or cells: living morphine-maintained mice (in vivo test; endogenous receptor)
# Assay Summary: precipitated diarrhea in morphine-maintained mice (peripheral opioid activity) and comparison with the writhing test
# Type: in vivo
# Measurement Conditions: higher ratio = greater relative antagonism of peripheral opioid receptors
Counter-ions that a name gives are not always drawn.
Quantity Name: Ratio (AD50 mouse writhing test / ED50 mouse diarrhea test)

- C[C@H]1CN(CCC(C(=O)NCC(=O)O)C2CCCCC2)CC[C@@]1(C)c1cccc(O)c1 (relative stereo) [Example 27, monohydrate]: 51
- CNC(=O)CCCNC(=O)C(CC1CCCCC1)CN1CC[C@@](C)(c2cccc(O)c2)[C@@H](C)C1 (stereo partly drawn) [Example 41, monohydrochloride]: 26
- CNC(=O)C(Cc1ccccc1)CN1CC[C@@](C)(c2cccc(OC)c2)[C@@H](C)C1 (single isomer, unassigned): 24
- C[C@H]1CN(CC(CC2CCCCC2)C(=O)O)CC[C@@]1(C)c1cccc(O)c1 (relative stereo) [Example 5B, monohydrate]: 7
